# system-name: PDE9 (Homo sapiens (Human))
# Sequence (O76083 whole entry): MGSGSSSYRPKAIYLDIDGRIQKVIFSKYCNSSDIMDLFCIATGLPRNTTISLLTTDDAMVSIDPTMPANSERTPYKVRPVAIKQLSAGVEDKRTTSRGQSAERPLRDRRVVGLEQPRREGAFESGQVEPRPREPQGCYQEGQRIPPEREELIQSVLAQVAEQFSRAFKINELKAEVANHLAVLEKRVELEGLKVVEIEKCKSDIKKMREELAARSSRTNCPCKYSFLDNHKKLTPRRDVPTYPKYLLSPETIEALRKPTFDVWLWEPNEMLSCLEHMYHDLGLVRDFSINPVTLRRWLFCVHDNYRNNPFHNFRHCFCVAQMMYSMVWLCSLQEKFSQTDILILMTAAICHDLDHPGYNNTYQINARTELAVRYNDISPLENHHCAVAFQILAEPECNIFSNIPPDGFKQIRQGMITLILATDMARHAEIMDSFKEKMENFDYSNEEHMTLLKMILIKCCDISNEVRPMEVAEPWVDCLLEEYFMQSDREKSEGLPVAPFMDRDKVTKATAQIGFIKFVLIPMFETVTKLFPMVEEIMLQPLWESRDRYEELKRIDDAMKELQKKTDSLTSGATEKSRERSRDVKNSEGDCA
# assay-text: PDE9 inhibition assay, SPA;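 note: enzyme reaction incubated for 1 h, then stopped by adding yttrium silicate scintillation proximity beads for the read-out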
# Type: biochemical
# condition-context: 10 microM compound; 10 nM 3H-cAMP
parameter-measured: inhibition at 10 µM (%)
Write the value in % as a bare number.

Prompt: // returns reported inhibition at 10 µM for input COc1ccc(Cn2c(C)cc3c(cnn3C3CCOC3)c2=O)cc1 (stereo not drawn)
Response: 8

Prompt: What measured inhibition at 10 µM goes with COc1ccc(Cn2c(CC3COC3)nc3c(cnn3C3CCOCC3)c2=O)cc1 ?
Response: 12

Prompt: Look at this molecule and give its reported inhibition at 10 µM. COc1ccc(Cn2c(C)cc3c(cnn3C3CCCOC3)c2=O)cc1 (stereo not drawn)
Response: 8

Prompt: Item under review: COCc1nc2c(cnn2C2CCOCC2)c(=O)n1Cc1ccc(OC)cc1 . Reported inhibition at 10 µM?
Response: -12

Prompt: So what's the measured inhibition at 10 µM for this one? Cc1cc2c(cnn2C2CCOCC2)c(=O)n1Cc1ccc(Cl)cc1
Response: 16

Prompt: Would you kindly share the measured inhibition at 10 µM for CCc1nc2c(cnn2C2CCOCC2)c(=O)n1Cc1ccc(OC)cc1 ?
Response: 2

Prompt: Any idea what its inhibition at 10 µM is? The molecule is COc1ccc(Cn2c(C)cc3c(cnn3C3CCOCC3)c2=O)cn1
Response: 9

Prompt: Please look up its inhibition at 10 µM: O=c1c2cnn(C3CCOCC3)c2nc(Cc2ccccc2)n1CC1CCCCC1
Response: 51

Prompt: Given COc1ccc(Cn2c(C)cc3c(cnn3C3CCOCC3)c2=O)cc1 , state its recorded inhibition at 10 µM.
Response: 19
